Literature IC50 values, system: UniProt:P11802.

Ask | Kindly state the measured IC50 obtained for `CN1CC[C@@H](c2c(O)cc(O)c3c(=O)cc(-c4ccc(C(F)(F)F)cc4Cl)oc23)[C@@H]1CO` with UniProt:P11802.
Reply | < 0.1 µM

Ask | Kindly state the measured IC50 obtained for `Cc1csc2ncnc(N/N=C\c3cccs3)c12` with UniProt:P11802.
Reply | > 72.9 µM

Ask | Kindly state the measured IC50 obtained for `NC(=O)c1ccc2c(c1)NC(=O)/C2=C(\Nc1ccc(CN2CCCCC2)cc1)c1ccccc1` with UniProt:P11802.
Reply | > 10 µM

Ask | Kindly state the measured IC50 obtained for `CC(C)(C)Nc1nc(C(F)(F)F)nc2ccc(Nc3ccccc3)cc12` with UniProt:P11802.
Reply | > 2.1 µM

Ask | Kindly state the measured IC50 obtained for `C=CC(=O)c1ccc2ccccc2c1` with UniProt:P11802.
Reply | > 10 µM

Ask | Kindly state the measured IC50 obtained for `Cc1n[nH]c2ccc(-c3cncc(N[C@@H](CO)c4ccc(F)cc4)n3)cc12` with UniProt:P11802.
Reply | > 1 µM

Ask | Kindly state the measured IC50 obtained for `COc1cc(Nc2c(C#N)cnc3cc4cc(OCCN5CCOCC5)c(OC)cc4cc23)c(Cl)cc1Cl` with UniProt:P11802.
Reply | > 10 µM

====

Literature IC50 values, system: Cyclin-dependent kinase 4 (Homo sapiens).
Sequence (P11802 whole entry): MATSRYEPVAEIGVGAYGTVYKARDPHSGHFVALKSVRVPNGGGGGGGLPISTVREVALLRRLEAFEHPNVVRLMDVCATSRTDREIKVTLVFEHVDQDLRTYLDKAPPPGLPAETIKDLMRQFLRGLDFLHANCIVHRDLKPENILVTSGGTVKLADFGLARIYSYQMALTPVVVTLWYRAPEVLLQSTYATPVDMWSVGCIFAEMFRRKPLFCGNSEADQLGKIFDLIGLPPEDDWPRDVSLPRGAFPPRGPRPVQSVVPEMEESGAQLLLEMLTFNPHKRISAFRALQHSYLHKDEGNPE
Give just the number in nM; leave the unit off.

Ask | Kindly state the measured IC50 obtained for `CNCc1cccc(/C=N\Nc2ncnc3sc(C(C)(C)C)cc23)n1` with Cyclin-dependent kinase 4 (Homo sapiens).
Reply | 705

Ask | Kindly state the measured IC50 obtained for `CS(=O)(=O)c1ccc(CC(=O)Nc2n[nH]c3ccc(N4CCCS4(=O)=O)cc23)cc1` with Cyclin-dependent kinase 4 (Homo sapiens).
Reply | 1400

Ask | Kindly state the measured IC50 obtained for `Nc1nc2ccc(C(=O)c3c(F)cccc3Cl)cc2n1Cc1c(F)cccc1F` with Cyclin-dependent kinase 4 (Homo sapiens).
Reply | 810

Ask | Kindly state the measured IC50 obtained for `c1cnn2ncc(-c3ccnc(NC4CC4)n3)c2c1` with Cyclin-dependent kinase 4 (Homo sapiens).
Reply | 80

Ask | Kindly state the measured IC50 obtained for CN(C)CC(O)COc1ccc(Nc2cc(Nc3ccccc3[N+](=O)[O-])ncn2)cc1 (stereo unspecified) with Cyclin-dependent kinase 4 (Homo sapiens).
Reply | 2000

Ask | Kindly state the measured IC50 obtained for `CC(C)c1cc2c(N/N=C\c3ccncc3)ncnc2s1` with Cyclin-dependent kinase 4 (Homo sapiens).
Reply | 807

Ask | Kindly state the measured IC50 obtained for CN(C)CC(O)COc1ccc(Nc2cc(Nc3ccccc3)ncn2)cc1 (stereo unspecified) with Cyclin-dependent kinase 4 (Homo sapiens).
Reply | 33000

Ask | Kindly state the measured IC50 obtained for `N#C/C=C(/c1ccc2nc(N)c(C(=O)c3c(F)cccc3F)n2c1)c1c(F)cccc1F` with Cyclin-dependent kinase 4 (Homo sapiens).
Reply | 1550

Ask | Kindly state the measured IC50 obtained for `C=Cc1ccc2c(-c3ccnc(NC4CC4)n3)cnn2n1` with Cyclin-dependent kinase 4 (Homo sapiens).
Reply | 200

Ask | Kindly state the measured IC50 obtained for `COc1cc(F)c(C(=O)c2c(N)nc3ccc(C(=O)c4c(F)cccc4F)cn23)c(F)c1` with Cyclin-dependent kinase 4 (Homo sapiens).
Reply | 838

Ask | Kindly state the measured IC50 obtained for `c1ccc(Nc2ncc(-c3ccnc(OC4CCCCC4)n3)s2)nc1` with Cyclin-dependent kinase 4 (Homo sapiens).
Reply | 4.2

Ask | Kindly state the measured IC50 obtained for `CC(C)c1cnn2c(NCc3ccccc3)cc(NC[C@H]3CCNC[C@@H]3O)nc12` with Cyclin-dependent kinase 4 (Homo sapiens).
Reply | 49000

Ask | Kindly state the measured IC50 obtained for `N=C1NC(=O)/C(=C2/CCNC(=O)c3[nH]cc(Br)c32)N1` with Cyclin-dependent kinase 4 (Homo sapiens).
Reply | 29600

Ask | Kindly state the measured IC50 obtained for `Cc1nn2ncccc2c1-c1ccnc(NC2CC2)n1` with Cyclin-dependent kinase 4 (Homo sapiens).
Reply | 800

Ask | Kindly state the measured IC50 obtained for CN(C)CC(O)COc1ccc(Nc2nccc(Nc3ccc(Cl)cc3)n2)cc1 (stereo unspecified) with Cyclin-dependent kinase 4 (Homo sapiens).
Reply | 1000

Ask | Kindly state the measured IC50 obtained for `O=C(Cc1ccc(F)cc1)Nc1n[nH]c2ccc(N3CCCS3(=O)=O)cc12` with Cyclin-dependent kinase 4 (Homo sapiens).
Reply | 3000

Ask | Kindly state the measured IC50 obtained for `c1cc(-c2cnn3nc(N4CCCC4)ccc23)nc(NC2CC2)n1` with Cyclin-dependent kinase 4 (Homo sapiens).
Reply | 500

Ask | Kindly state the measured IC50 obtained for `Cc1nc2c(F)cc(-c3cc(Nc4cnc(CN5CCN(C6CCCC6)CC5)cn4)ncn3)cc2n1C(C)C` with Cyclin-dependent kinase 4 (Homo sapiens).
Reply | 2.2

Ask | Kindly state the measured IC50 obtained for `Cc1cccc(/C=N\Nc2ncnc3sc(C(C)(C)C)cc23)n1` with Cyclin-dependent kinase 4 (Homo sapiens).
Reply | 1600

Ask | Kindly state the measured IC50 obtained for CN(C)CC(O)COc1ccc(Nc2nccc(N(Cc3ccccc3)c3cc(Cl)ccc3Cl)n2)cc1 (stereo unspecified) with Cyclin-dependent kinase 4 (Homo sapiens).
Reply | 1000

Ask | Kindly state the measured IC50 obtained for `O=C(O)c1ccc(Nc2nccc(-c3cnn4ncccc34)n2)cc1` with Cyclin-dependent kinase 4 (Homo sapiens).
Reply | 790

Ask | Kindly state the measured IC50 obtained for `CCN1CCN(Cc2ncc(Nc3cc(-c4cc(F)c5nc(C)n(C(C)C)c5c4)ncn3)cn2)CC1` with Cyclin-dependent kinase 4 (Homo sapiens).
Reply | 5160

Ask | Kindly state the measured IC50 obtained for `O=C(Cc1ccc(Br)cc1)Nc1n[nH]c2ccc(N3CCCS3(=O)=O)cc12` with Cyclin-dependent kinase 4 (Homo sapiens).
Reply | 2000

Ask | Kindly state the measured IC50 obtained for `COc1ccccc1C(=O)c1c(N)nc2ccc(C(=O)c3c(F)cccc3F)cn12` with Cyclin-dependent kinase 4 (Homo sapiens).
Reply | 1970

Ask | Kindly state the measured IC50 obtained for `CC(C)c1cc2c(N/N=C\c3cccnc3)ncnc2s1` with Cyclin-dependent kinase 4 (Homo sapiens).
Reply | 1850

Ask | Kindly state the measured IC50 obtained for `O=C(Cc1ccc(-c2ccncc2)cc1)Nc1n[nH]c2ccc(N3CCCS3(=O)=O)cc12` with Cyclin-dependent kinase 4 (Homo sapiens).
Reply | 1330

Ask | Kindly state the measured IC50 obtained for `CCOC(=O)CSc1cnc(NC(C)=O)s1` with Cyclin-dependent kinase 4 (Homo sapiens).
Reply | 23000

Ask | Kindly state the measured IC50 obtained for `COCCN1CCN(Cc2cnc(Nc3cc(-c4cc(F)c5nc(C)n(C(C)C)c5c4)ncn3)cn2)CC1` with Cyclin-dependent kinase 4 (Homo sapiens).
Reply | 3.7
